- System: K86415-001-R-J1-PDC complex spheroids, viability
- measurement-notes: Anticancer human tumor K86415-001-R-J1-PDC patient-derived lung adenocarcinoma cell line growth inhibition [RAS]; active = viability on the fitted dose curve at most 10% of control; inactive = the rest
- cond: second compound 0.000949 µM; first compound 0.1 µM
Possible outcomes: active, inactive

| molecule | label-class |
| --- | --- |
| C=CC(=O)N1CCN(c2nc(OCC3CCCN3C)nc3c(F)c(-c4nc(N)cc(C)c4C(F)(F)F)c(Cl)cc23)C(C)C1 (stereo not given) + CCn1c(-c2cc(N3CCN(C)CC3)cnc2C(C)OC)c2c3cc(ccc31)-c1csc(n1)CC(NC(=O)C1CC1C)C(=O)N1CCCC(N1)C(=O)OCC(C)(C)C2 | active |
| Nc1ccn(C2OC(CO)C(O)C2(F)F)c(=O)n1 (stereo not given) + CCn1c(-c2cc(N3CCN(C)CC3)cnc2C(C)OC)c2c3cc(ccc31)-c1csc(n1)CC(NC(=O)C1CC1C)C(=O)N1CCCC(N1)C(=O)OCC(C)(C)C2 | inactive |
| CC(=O)OC12COC1CC(O)C1(C)C(=O)C(O)C3=C(C)C(OC(=O)C(O)C(NC(=O)OC(C)(C)C)c4ccccc4)CC(O)(C(OC(=O)c4ccccc4)C21)C3(C)C (stereo not given) + CCn1c(-c2cccnc2C(C)OC)c2c3cc(ccc31)N1CCOC(CC(NC(=O)C(C(C)C)N(C)C(=O)C3(F)CCN(C(=O)C#CC(C)(C)N(C)C)CC3)C(=O)N3CCCC(N3)C(=O)OCC(C)(C)C2)C1 | inactive |
| NC1c2ccccc2OC12CCN(c1cnc3c(N4CCCc5ncccc54)n[nH]c3n1)CC2 (stereo not given) + CCn1c(-c2cc(N3CCN(C)CC3)cnc2C(C)OC)c2c3cc(ccc31)-c1csc(n1)CC(NC(=O)C1CC1C)C(=O)N1CCCC(N1)C(=O)OCC(C)(C)C2 | inactive |
| CCC(CC)c1cc(NC2CCC(N)C2)n2nccc2n1 (stereo not given) + CCn1c(-c2cccnc2C(C)OC)c2c3cc(ccc31)N1CCOC(CC(NC(=O)C(C(C)C)N(C)C(=O)C3(F)CCN(C(=O)C#CC(C)(C)N(C)C)CC3)C(=O)N3CCCC(N3)C(=O)OCC(C)(C)C2)C1 | inactive |

###

- System: K86415-001-R-J1-PDC complex spheroids, viability
- measurement-notes: Anticancer human tumor K86415-001-R-J1-PDC cell line growth inhibition [RAS];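 note: spheroids exposed to agents for seven days before readout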
- cond: second compound 0.03 µM; first compound 0.03 µM; stronger effect = lower value
Items are presented alongside their recorded viability, T/C.
attribute-measured: viability, T/C

| compound | measured-result |
| --- | --- |
| CCc1c2c(nc3ccc(O)cc13)-c1cc3c(c(=O)n1C2)COC(=O)[C@]3(O)CC + CCn1c(-c2cc(N3CCN(C)CC3)cnc2C(C)OC)c2c3cc(ccc31)-c1csc(n1)CC(NC(=O)C1CC1C)C(=O)N1CCCC(N1)C(=O)OCC(C)(C)C2 | 3.44% |
| CC1(C)CCC(Nc2ncc(C(F)(F)F)c(-c3c[nH]c4c(P(C)(C)=O)c(C#N)ccc34)n2)CN1 (centres undefined) + CCn1c(-c2cccnc2C(C)OC)c2c3cc(ccc31)N1CCOC(CC(NC(=O)C(C(C)C)N(C)C(=O)C3(F)CCN(C(=O)C#CC(C)(C)N(C)C)CC3)C(=O)N3CCCC(N3)C(=O)OCC(C)(C)C2)C1 | 13.9% |
| CCc1c2c(nc3ccc(O)cc13)-c1cc3c(c(=O)n1C2)COC(=O)[C@]3(O)CC + CCn1c(-c2cccnc2C(C)OC)c2c3cc(ccc31)N1CCOC(CC(NC(=O)C(C(C)C)N(C)C(=O)C3(F)CCN(C(=O)C#CC(C)(C)N(C)C)CC3)C(=O)N3CCCC(N3)C(=O)OCC(C)(C)C2)C1 | 10.2% |
| CC1(C)CCC(Nc2ncc(C(F)(F)F)c(-c3c[nH]c4c(P(C)(C)=O)c(C#N)ccc34)n2)CN1 (centres undefined) + CCn1c(-c2cc(N3CCN(C)CC3)cnc2C(C)OC)c2c3cc(ccc31)-c1csc(n1)CC(NC(=O)C1CC1C)C(=O)N1CCCC(N1)C(=O)OCC(C)(C)C2 | 7.05% |
